Source listed as ChEMBL document CHEMBL2331094.

MEASUREMENT_TARGET: Lysophosphatidic acid receptor 2 (Homo sapiens)
Sequence (Q9HBW0 whole entry): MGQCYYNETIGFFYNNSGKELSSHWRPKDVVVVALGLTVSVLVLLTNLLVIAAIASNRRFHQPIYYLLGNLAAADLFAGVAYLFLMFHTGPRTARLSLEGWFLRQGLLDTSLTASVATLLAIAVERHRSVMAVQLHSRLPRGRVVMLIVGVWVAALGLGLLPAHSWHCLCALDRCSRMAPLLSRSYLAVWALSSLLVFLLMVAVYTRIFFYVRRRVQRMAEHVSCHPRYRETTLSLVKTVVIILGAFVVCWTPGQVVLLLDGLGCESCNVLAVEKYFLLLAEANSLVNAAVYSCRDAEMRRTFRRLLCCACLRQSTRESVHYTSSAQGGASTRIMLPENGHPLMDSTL
TEST_METHOD_NOTES: Agonist activity at human LPA2 receptor transfected in HEK293 cells after 1 hr by TGFalpha shedding assay
What pEC50 was measured for each of the following?
Answers are plain numbers, as −log10 of the molar value.

Below: 4 molecules and their reported pEC50.
{"columns": ["MOLECULE", "pEC50"],
 "data": [
  ["CCCCCCCCCCCCCCCCCCOC[C@@H](COP(O)(O)=S)OC", 6.96],
  ["CCCCCCCCCCCCCCCCCCOCC(COP(O)(O)=S)OC (racemic)", 7.00],
  ["CCCCCCCCCCCCCCCCOC(COC)COP(O)(O)=S (stereo not given)", 6.94],
  ["CCCCCCCCCCCCCCCCCC(=O)OC(COC)COP(O)(O)=S (racemic)", 6.84]
]}

Hi, could you look up pEC50 for each item in my list?
1. CCCCCCCCCCCCCCCC(=O)OC[C@@H](O)COP(=O)(O)O
2. CCCCCCCCCCCCCCCCCC(=O)OC[C@@H](COP(O)(O)=S)OC
3. CCCCCCCCCCCCCCCCCC(=O)OCC(COP(=O)(O)S)OC (racemic)
4. CCCCCCCCCCCCCCCCCOC(COC)COP(O)(O)=S (racemic)
5. CCCCCCCCCCCCCCCCCCOC[C@H](COP(O)(O)=S)OC

6.54
6.95
6.79
6.93
6.46

Which pEC50 value belongs to "CCCCCCCCCCCCCCCCCC(=O)OC[C@H](COP(O)(O)=S)OC" ?
6.83

---

MEASUREMENT_TARGET: UniProtKB Q9H1C0
Sequence (Q9H1C0 whole entry): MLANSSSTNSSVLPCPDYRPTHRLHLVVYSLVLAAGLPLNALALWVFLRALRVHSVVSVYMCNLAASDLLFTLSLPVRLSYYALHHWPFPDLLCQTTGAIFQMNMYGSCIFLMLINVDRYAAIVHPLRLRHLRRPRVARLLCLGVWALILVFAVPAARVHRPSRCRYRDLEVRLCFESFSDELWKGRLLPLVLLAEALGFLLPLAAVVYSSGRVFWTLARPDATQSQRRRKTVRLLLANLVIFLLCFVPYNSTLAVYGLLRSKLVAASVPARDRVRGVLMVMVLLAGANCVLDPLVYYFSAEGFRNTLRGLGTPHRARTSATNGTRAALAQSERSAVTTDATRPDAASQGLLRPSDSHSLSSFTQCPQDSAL
TEST_METHOD_NOTES: Intrinsic activity at human LPA5 receptor transfected in HEK293 cells after 1 hr by TGFalpha shedding assay in presence of Ki16425 relative to LPA
Assay type: cell-based
What Intrinsic activity was measured for each of the following?
Numbers only.

Below: 3 compounds and their reported Intrinsic activity.
{"columns": ["COMPOUND", "REPORTED_VALUE"],
 "data": [
  ["CCCCCCCCCCCCCCCCOC(COC)COP(O)(O)=S (stereo unspecified)", 300],
  ["CCCCCCCCCCCCCCCCCC(=O)OC[C@H](COP(O)(O)=S)OC", 8.4],
  ["CCCCCCCCCCCCCCCCCCOCC(COP(O)(O)=S)OC (racemic)", 114]
]}

Hi, could you look up Intrinsic activity for each item in my list?
1. CCCCCCCCCCCCCCCCCC(=O)OC(COC)COP(O)(O)=S (racemic)
2. CCCCCCCCCCCCCCCCCC(=O)OCC(COP(=O)(O)S)OC (racemic)

1. 41
2. 11.1

Which Intrinsic activity value belongs to "CCCCCCCCCCCCCCCC(=O)OC[C@@H](O)COP(=O)(O)O" ?
1.04

---

MEASUREMENT_TARGET: Lysophosphatidic acid receptor 4 (Homo sapiens, UniProt Q99677)
Sequence (Q99677 whole entry): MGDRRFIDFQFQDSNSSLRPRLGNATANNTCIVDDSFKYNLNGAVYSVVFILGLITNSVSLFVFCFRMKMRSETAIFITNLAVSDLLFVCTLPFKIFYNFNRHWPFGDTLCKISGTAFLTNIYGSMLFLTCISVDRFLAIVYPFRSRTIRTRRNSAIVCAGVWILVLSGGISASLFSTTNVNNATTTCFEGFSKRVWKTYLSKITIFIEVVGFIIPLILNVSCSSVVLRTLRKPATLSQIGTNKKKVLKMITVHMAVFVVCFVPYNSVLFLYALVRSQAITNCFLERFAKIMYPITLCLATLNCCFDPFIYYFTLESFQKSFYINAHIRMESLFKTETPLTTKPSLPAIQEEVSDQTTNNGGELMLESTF
TEST_METHOD_NOTES: Agonist activity at human LPA4 receptor transfected in HEK293 cells after 1 hr by TGFalpha shedding assay in presence of Ki16425
What pEC50 was measured for each of the following?
One number for each entry, as −log10 of the molar value.

Below: 9 compounds and their reported pEC50.
{"columns": ["COMPOUND", "MEASUREMENT_TARGET", "READOUT_TYPE", "REPORTED_VALUE"],
 "data": [
  ["CCCCCCCCCCCCCCCCCC(=O)OC[C@@H](COP(O)(O)=S)OC", "Lysophosphatidic acid receptor 4 (Homo sapiens, UniProt Q99677)", "pEC50", 8.57],
  ["CCCCCCCCCCCCCCCCCCOCC(COP(O)(O)=S)OC (racemic)", "Lysophosphatidic acid receptor 4 (Homo sapiens, UniProt Q99677)", "pEC50", 8.42],
  ["CCCCCCCCCCCCCCCCCCOC[C@H](COP(O)(O)=S)OC", "Lysophosphatidic acid receptor 4 (Homo sapiens, UniProt Q99677)", "pEC50", 8.31],
  ["CCCCCCCCCCCCCCCCCCOC[C@@H](COP(O)(O)=S)OC", "Lysophosphatidic acid receptor 4 (Homo sapiens, UniProt Q99677)", "pEC50", 8.46],
  ["CCCCCCCCCCCCCCCCCC(=O)OC(COC)COP(O)(O)=S (racemic)", "Lysophosphatidic acid receptor 4 (Homo sapiens, UniProt Q99677)", "pEC50", 8.62],
  ["CCCCCCCCCCCCCCCC(=O)OC[C@@H](O)COP(=O)(O)O", "Lysophosphatidic acid receptor 4 (Homo sapiens, UniProt Q99677)", "pEC50", 7.08],
  ["CCCCCCCCCCCCCCCCCC(=O)OCC(COP(=O)(O)S)OC (racemic)", "Lysophosphatidic acid receptor 4 (Homo sapiens, UniProt Q99677)", "pEC50", 8.48],
  ["CCCCCCCCCCCCCCCCCOC(COC)COP(O)(O)=S (racemic)", "Lysophosphatidic acid receptor 4 (Homo sapiens, UniProt Q99677)", "pEC50", 8.35],
  ["CCCCCCCCCCCCCCCCOC(COC)COP(O)(O)=S (stereo not given)", "Lysophosphatidic acid receptor 4 (Homo sapiens, UniProt Q99677)", "pEC50", 8.42]
]}

Moving on to another compound below.
Which pEC50 value belongs to "CCCCCCCCCCCCCCCCCC(=O)OC[C@H](COP(O)(O)=S)OC" ?
8.31
